The reported measurements were obtained from paper PMC6150385.

Catalogue of Papp B→A readings, one per entry.
- assay details: in vitro
- particulars: dog, MDCK-MDR1

{"input smiles": "CC[C@H]1CN2CC[C@]3(C(=O)Nc4ccccc43)[C@@H]2C[C@@H]1/C(=C\\OC)C(=O)OC", "Papp B→A (×10⁻⁶ cm/s)": 42.3}
{"input smiles": "CC[C@H]1CN2CC[C@@]3(C(=O)Nc4ccccc43)[C@@H]2C[C@@H]1/C(=C\\OC)C(=O)OC", "Papp B→A (×10⁻⁶ cm/s)": 27.7}
{"input smiles": "CC[C@H]1CN2CCc3c([nH]c4ccccc34)[C@H]2C[C@@H]1/C(=C\\OC)C(=O)OC", "Papp B→A (×10⁻⁶ cm/s)": 14.1}

---

- assay details: in vitro
- particulars: dog, MDCK-MDR1

{"input smiles": "C=C[C@H]1CN2CC[C@]3(C(=O)Nc4ccccc43)[C@@H]2C[C@@H]1/C(=C\\OC)C(=O)OC", "unit": "×10⁻⁶ cm/s", "Papp A→B at 90 min, 40 µM": 1.21}
{"input smiles": "C=C[C@H]1CN2CCc3c([nH]c4ccccc34)[C@H]2C[C@@H]1/C(=C\\OC)C(=O)OC", "unit": "×10⁻⁶ cm/s", "Papp A→B at 90 min, 40 µM": 14.9}
{"input smiles": "C=C[C@H]1CN2CC[C@@]3(C(=O)Nc4ccccc43)[C@@H]2C[C@@H]1/C(=C\\OC)C(=O)OC", "unit": "×10⁻⁶ cm/s", "Papp A→B at 90 min, 40 µM": 11.1}

---

Catalogue of Papp B→A at 90 min, 40 µM readings, one per entry.
- Tested on: P-gp
- assay details: Transport in the presence and absence of verapamil (P-gp function / verapamil inhibition of efflux) in MDCK-pHaMDR cell monolayer
- particulars: dog, MDCK-MDR1

{"input smiles": "CC[C@H]1CN2CC[C@]3(C(=O)Nc4ccccc43)[C@@H]2C[C@@H]1/C(=C\\OC)C(=O)OC", "system tested": "P-gp", "unit": "×10⁻⁶ cm/s", "Papp B→A at 90 min, 40 µM": 18.1}
{"input smiles": "C=C[C@H]1CN2CC[C@]3(C(=O)Nc4ccccc43)[C@@H]2C[C@@H]1/C(=C\\OC)C(=O)OC", "system tested": "P-gp", "unit": "×10⁻⁶ cm/s", "Papp B→A at 90 min, 40 µM": 17.5}

---

- System: P-gp
- assay details: Transport in the presence and absence of verapamil (P-gp function / verapamil inhibition of efflux) in MDCK-pHaMDR cell monolayer
- particulars: dog, MDCK-MDR1, with verapamil 100 µM, Efflux Ratio (Papp BL→AP/Papp AP→BL), Rh123 10 μM with 100 μM verapamil, 90 min

{"compound": "COC(=O)c1ccccc1-c1c2ccc(=N)cc-2oc2cc(N)ccc12 [Rh123, Rhodamine 123, reference compound]", "efflux ratio at 90 min, 10 µM": 1.34}

---

- assay details: Stability of QC samples after three freeze-thaw cycles (HPLC)
- Type: physicochemical
- particulars: QC sample 5 μM, three freeze (−20 °C)-thaw cycles, percentage remains
assay metric: Stability (%)

{"input smiles": "CC[C@H]1CN2CC[C@]3(C(=O)Nc4ccccc43)[C@@H]2C[C@@H]1/C(=C\\OC)C(=O)OC", "assay metric": "Stability", "result": 96.32}
{"input smiles": "C=C[C@H]1CN2CC[C@@]3(C(=O)Nc4ccccc43)[C@@H]2C[C@@H]1/C(=C\\OC)C(=O)OC", "assay metric": "Stability", "result": 107.15}
{"input smiles": "CC[C@H]1CN2CCc3c([nH]c4ccccc34)[C@H]2C[C@@H]1/C(=C\\OC)C(=O)OC", "assay metric": "Stability", "result": 106.1}
{"input smiles": "C=C[C@H]1CN2CC[C@]3(C(=O)Nc4ccccc43)[C@@H]2C[C@@H]1/C(=C\\OC)C(=O)OC", "assay metric": "Stability", "result": 106.67}
{"input smiles": "CC[C@H]1CN2CC[C@@]3(C(=O)Nc4ccccc43)[C@@H]2C[C@@H]1/C(=C\\OC)C(=O)OC", "assay metric": "Stability", "result": 108.52}
{"input smiles": "C=C[C@H]1CN2CCc3c([nH]c4ccccc34)[C@H]2C[C@@H]1/C(=C\\OC)C(=O)OC", "assay metric": "Stability", "result": 106.89}

---

- Tested on: P-gp
- assay details: Transport in the presence and absence of verapamil (P-gp function / verapamil inhibition of efflux) in MDCK-pHaMDR cell monolayer
- particulars: dog, MDCK-MDR1
assay metric: Papp B→A at 90 min, 10 µM

{"compound": "COC(=O)c1ccccc1-c1c2ccc(=N)cc-2oc2cc(N)ccc12 [Rh123, Rhodamine 123, reference compound]", "result": "58 nm/s"}

---

- Tested on: P-gp
- assay details: Transport in the presence and absence of verapamil (P-gp function / verapamil inhibition of efflux) in MDCK-pHaMDR cell monolayer
- particulars: dog, MDCK-MDR1, with verapamil 100 µM
assay metric: Papp B→A at 90 min, 10 µM

{"compound": "COC(=O)c1ccccc1-c1c2ccc(=N)cc-2oc2cc(N)ccc12 [Rh123, Rhodamine 123, reference compound]", "assay metric": "Papp B→A at 90 min, 10 µM", "result": "1.71 ×10⁻⁶ cm/s"}

---

Catalogue of Papp readings, one per entry.
- assay details: in vitro
- particulars: dog, MDCK-MDR1

{"input smiles": "CC[C@H]1CN2CC[C@@]3(C(=O)Nc4ccccc43)[C@@H]2C[C@@H]1/C(=C\\OC)C(=O)OC", "Papp": "~10 ×10⁻⁶ cm/s"}
{"input smiles": "CC[C@H]1CN2CCc3c([nH]c4ccccc34)[C@H]2C[C@@H]1/C(=C\\OC)C(=O)OC", "Papp": "~10 ×10⁻⁶ cm/s"}

---

- assay details: Bidirectional transport across MDCK-pHaMDR cell monolayer (in vitro BBB model)
- particulars: dog, MDCK-MDR1, Efflux Ratio (Papp BL→AP/Papp AP→BL), 40 μM, 90 min
assay metric: efflux ratio at 90 min, 40 µM

{"input smiles": "C=C[C@H]1CN2CC[C@@]3(C(=O)Nc4ccccc43)[C@@H]2C[C@@H]1/C(=C\\OC)C(=O)OC", "result": "< 2"}

---

- Tested on: P-gp
- assay details: Transport in the presence and absence of verapamil (P-gp function / verapamil inhibition of efflux) in MDCK-pHaMDR cell monolayer
- particulars: dog, MDCK-MDR1, with verapamil 100 µM
assay metric: Papp A→B at 90 min, 10 µM (×10⁻⁶ cm/s)

{"compound": "COC(=O)c1ccccc1-c1c2ccc(=N)cc-2oc2cc(N)ccc12 [Rh123, Rhodamine 123, reference compound]", "unit": "×10⁻⁶ cm/s", "result": 1.27}

---

- System: P-gp
- assay details: in vitro
- particulars: dog, MDCK-MDR1

{"compound": "C=C[C@H]1CN2CC[C@]3(C(=O)Nc4ccccc43)[C@@H]2C[C@@H]1/C(=C\\OC)C(=O)OC [alkaloid 3, corynoxeine]", "Papp A→B at 90 min, 40 µM [×10⁻⁶ cm/s]": 17.2}
{"compound": "CC[C@H]1CN2CC[C@]3(C(=O)Nc4ccccc43)[C@@H]2C[C@@H]1/C(=C\\OC)C(=O)OC [alkaloid 1, rhynchophylline]", "Papp A→B at 90 min, 40 µM [×10⁻⁶ cm/s]": 22.2}

---

- Test system: P-gp
- assay details: Transport in the presence and absence of verapamil (P-gp function / verapamil inhibition of efflux) in MDCK-pHaMDR cell monolayer
- particulars: dog, MDCK-MDR1, with verapamil 100 µM, Efflux Ratio (Papp BL→AP/Papp AP→BL), 40 μM alkaloid with 100 μM verapamil, 90 min

{"input smiles": "C=C[C@H]1CN2CC[C@]3(C(=O)Nc4ccccc43)[C@@H]2C[C@@H]1/C(=C\\OC)C(=O)OC", "efflux ratio at 90 min, 40 µM": "< 2"}
